Values compiled from patent US11166954B2.

- protocolDetails: In vivo pharmacokinetics (PK) in rats
- measurementConditions: male, SD; rat, po, 2.00 mg/kg, plasma
Catalogue of compounds with associated AUC(0-inf)

compound	AUC(0-inf), ng·h/mL
CCOC(=O)C1=C(CN2CCO[C@H](CCC(=O)O)C2)NC(c2nccs2)=N[C@H]1c1ccc(F)cc1Cl [Control compound 2, reference compound]	897
CCOC(=O)C1=C(CN2CCO[C@H](/C=C/C(=O)O)C2)NC(c2nccs2)=N[C@H]1c1ccc(F)cc1Cl	2290
CCOC(=O)C1=C(CN2C[C@@H](/C=C/C(=O)O)CC(F)(F)C2)NC(c2nccs2)=N[C@H]1c1ccc(F)cc1Cl	236

====

- protocolDetails: Cytotoxicity detection (CellTiter-Glo)
- Assay type: cell-based
- measurementConditions: human, HepG2.2.15 cells, highest concentration 150 μM
propertyName: CC50 at 4 days (µM)

compound	propertyName	relation	endpointValue
CCOC(=O)C1=C(CN2CC(OCC(=O)O)C(F)(F)C2)NC(c2nccs2)=N[C@H]1c1ccc(F)cc1Cl (stereo partly shown) [10-42 of Example 12]	CC50 at 4 days	>	150
CCOC(=O)C1=C(CN2CCC(O)C(F)(F)C2)NC(c2nccs2)=N[C@H]1c1ccc(F)cc1Cl (single isomer, unassigned) [Isomer B of Example 4]	CC50 at 4 days	=	51.3
CCOC(=O)C1=C(CN2CCOCC2COCC(=O)O)NC(c2nccs2)=N[C@H]1c1ccc(F)cc1Cl (stereo partly shown) [10-162 of Example 15]	CC50 at 4 days	>	150
CCOC(=O)C1=C(CN2C[C@@H](/C=C/C(=O)O)CC(F)(F)C2)NC(c2nccs2)=N[C@H]1c1ccc(F)cc1Cl [10-230 of Example 26]	CC50 at 4 days	=	137

====

- protocolDetails: In vivo pharmacokinetics (PK) in cynomolgus macaques
- Design: species or system male cynomolgus macaques
- measurementConditions: male, cynomolgus monkey, 0.5 mg/kg; cynomolgus macaque, iv, 0.50 mg/kg, plasma
propertyName: AUC(0-inf) (ng·h/mL)

smilesInput	endpointValue
COC(=O)C1=C(CN2CCO[C@H](/C=C/C(=O)O)C2)NC(c2nccs2)=N[C@H]1c1ccc(F)cc1Cl	2460

====

- protocolDetails: In vivo pharmacokinetics (PK) in cynomolgus macaques
- Parameters: species or system male cynomolgus macaques
- measurementConditions: male, cynomolgus monkey, plasma, po, 2.5 mg/kg; cynomolgus macaque, by gavage, 2.50 mg/kg; read-out: bioavailability (F)
propertyName: bioavailability (%)

molecule	propertyName	endpointValue
COC(=O)C1=C(CN2CCO[C@H](/C=C/C(=O)O)C2)NC(c2nccs2)=N[C@H]1c1ccc(F)cc1Cl [10-227 of Example 27]	bioavailability	37.2

====

- protocolDetails: In vivo pharmacokinetics (PK) in Beagle dogs
- Set-up: species or system male Beagle dogs
- measurementConditions: male, 2.5 mg/kg; Beagle dog, po, 2.50 mg/kg, plasma
- Protocol: The test compounds were administrated to male Beagle dogs by intravenous (iv) and by gavage (po), respectively, the doses of the iv and po administration were respectively 0.5 mg/kg and 2.5 mg/kg, the solvent system for iv administration was 5% DMSO:5% solutol:90% physiological saline, and the solvent system for po administration was 0.5% MC. Blood was collected at multiple time points after iv administration and po administration for the PK study. […]

smilesInput	AUC(0-inf), ng·h/mL
COC(=O)C1=C(CN2CCO[C@H](/C=C/C(=O)O)C2)NC(c2nccs2)=N[C@H]1c1ccc(F)cc1Cl	33200

====

Catalogue of compounds with associated bioavailability
- protocolDetails: In vivo pharmacokinetics (PK) in rats
- measurementConditions: male, SD, plasma, po; rat, by gavage, 2.00 mg/kg; read-out: bioavailability (F)
propertyName: bioavailability (%)

compound	propertyName	measureUnit	endpointValue
CCOC(=O)C1=C(CN2CCO[C@H](CCC(=O)O)C2)NC(c2nccs2)=N[C@H]1c1ccc(F)cc1Cl [Control compound 2, reference compound]	bioavailability	%	20.9
CCOC(=O)C1=C(CN2CCO[C@H](/C=C/C(=O)O)C2)NC(c2nccs2)=N[C@H]1c1ccc(F)cc1Cl [10-226 of Example 25]	bioavailability	%	47.6

====

- protocolDetails: In vivo pharmacokinetics (PK) in cynomolgus macaques
- Parameters: species or system male cynomolgus macaques
- measurementConditions: male, cynomolgus monkey, 2.5 mg/kg; cynomolgus macaque, po, 2.50 mg/kg, plasma

smilesInput	Cmax / ng/mL
COC(=O)C1=C(CN2CCO[C@H](/C=C/C(=O)O)C2)NC(c2nccs2)=N[C@H]1c1ccc(F)cc1Cl	1070

====

- Tested on: CYP3A4
- protocolDetails: CYP3A4 induction test (HepG2 C3A/pCYP3A4-Luc, C8 cells, luciferase)
- Type: cell-based
- measurementConditions: human, HepG2 C3A/pCYP3A4-Luc, C8 cells; CYP3A4 induction, 72 hours
propertyName: EC50 at 72 h (µM)

smilesInput	targetUnderTest	measureUnit	endpointValue
COC(=O)C1=C(CN2CCO[C@H](/C=C/C(=O)O)C2)NC(c2nccs2)=N[C@H]1c1ccc(F)cc1Cl	CYP3A4	µM	123

====

- protocolDetails: In vivo pharmacokinetics (PK) in rats
- measurementConditions: male, SD, rat, liver/plasma, po, 2 mg/kg, po, 2.00 mg/kg, Cmax liver/plasma, read-out: blood-drug concentration in liver relative to that in plasma
propertyName: Kp

compound	propertyName	endpointValue
CCOC(=O)C1=C(CN2CCO[C@H](CCC(=O)O)C2)NC(c2nccs2)=N[C@H]1c1ccc(F)cc1Cl [Control compound 2, reference compound]	Kp	~0.5
CCOC(=O)C1=C(CN2C[C@@H](/C=C/C(=O)O)CC(F)(F)C2)NC(c2nccs2)=N[C@H]1c1ccc(F)cc1Cl	Kp	~10

====

- protocolDetails: In vivo pharmacokinetics (PK) in Beagle dogs
- Design: species or system male Beagle dogs
- measurementConditions: male, 0.5 mg/kg; Beagle dog, iv, 0.50 mg/kg, plasma
propertyName: AUC(0-t) (ng·h/mL)

smilesInput	propertyName	endpointValue
COC(=O)C1=C(CN2CCO[C@H](/C=C/C(=O)O)C2)NC(c2nccs2)=N[C@H]1c1ccc(F)cc1Cl	AUC(0-t)	8690

====

- protocolDetails: In vivo pharmacokinetics (PK) in Beagle dogs
- Set-up: species or system male Beagle dogs
- measurementConditions: male, 0.5 mg/kg; Beagle dog, iv, 0.50 mg/kg, plasma

molecule	Cmax [ng/mL]
COC(=O)C1=C(CN2CCO[C@H](/C=C/C(=O)O)C2)NC(c2nccs2)=N[C@H]1c1ccc(F)cc1Cl [10-227 of Example 27]	2310

====

- protocolDetails: In vivo pharmacokinetics (PK) in Beagle dogs
- Design: species or system male Beagle dogs
- measurementConditions: male, 2.5 mg/kg; Beagle dog, po, 2.50 mg/kg, plasma
propertyName: Cmax

smilesInput	endpointValue
COC(=O)C1=C(CN2CCO[C@H](/C=C/C(=O)O)C2)NC(c2nccs2)=N[C@H]1c1ccc(F)cc1Cl	7200 ng/mL

====

- protocolDetails: In vivo pharmacokinetics (PK) in rats
- measurementConditions: male, SD; rat, po, 2.00 mg/kg, liver
Catalogue of molecules with associated AUC(0-inf)
propertyName: AUC(0-inf) (ng·h/mL)

molecule	endpointValue
CCOC(=O)C1=C(CN2CCO[C@H](CCC(=O)O)C2)NC(c2nccs2)=N[C@H]1c1ccc(F)cc1Cl [Control compound 2, reference compound]	1490
CCOC(=O)C1=C(CN2C[C@@H](/C=C/C(=O)O)CC(F)(F)C2)NC(c2nccs2)=N[C@H]1c1ccc(F)cc1Cl	2340
CCOC(=O)C1=C(CN2CCO[C@H](/C=C/C(=O)O)C2)NC(c2nccs2)=N[C@H]1c1ccc(F)cc1Cl	3030

====

- protocolDetails: In vivo pharmacokinetics (PK) in rats
- measurementConditions: male, SD, rat, liver/plasma, po, 2 mg/kg, po, 2.00 mg/kg, AUCINF liver/plasma, read-out: amount of exposure in liver relative to that in plasma
Catalogue of molecules with associated Kp
propertyName: Kp

molecule	endpointValue
CCOC(=O)C1=C(CN2CCO[C@H](CCC(=O)O)C2)NC(c2nccs2)=N[C@H]1c1ccc(F)cc1Cl [Control compound 2, reference compound]	~1.5
CCOC(=O)C1=C(CN2C[C@@H](/C=C/C(=O)O)CC(F)(F)C2)NC(c2nccs2)=N[C@H]1c1ccc(F)cc1Cl	~10

====

- protocolDetails: In vivo pharmacokinetics (PK) in Beagle dogs
- Parameters: species or system male Beagle dogs
- measurementConditions: male, 2.5 mg/kg; Beagle dog, po, 2.50 mg/kg, plasma
propertyName: AUC(0-t)

smilesInput	propertyName	endpointValue
COC(=O)C1=C(CN2CCO[C@H](/C=C/C(=O)O)C2)NC(c2nccs2)=N[C@H]1c1ccc(F)cc1Cl	AUC(0-t)	32900 ng·h/mL

====

- protocolDetails: In vivo pharmacokinetics (PK) in rats
- measurementConditions: male, SD; rat, po, 2.00 mg/kg, liver
Catalogue of molecules with associated Cmax
propertyName: Cmax (ng/mL)

molecule	propertyName	endpointValue
CCOC(=O)C1=C(CN2CCO[C@H](CCC(=O)O)C2)NC(c2nccs2)=N[C@H]1c1ccc(F)cc1Cl [Control compound 2, reference compound]	Cmax	547
CCOC(=O)C1=C(CN2C[C@@H](/C=C/C(=O)O)CC(F)(F)C2)NC(c2nccs2)=N[C@H]1c1ccc(F)cc1Cl	Cmax	1520
CCOC(=O)C1=C(CN2CCO[C@H](/C=C/C(=O)O)C2)NC(c2nccs2)=N[C@H]1c1ccc(F)cc1Cl	Cmax	1690
